Data provenance: patent US20080221361A1

assay.notes: Viscosity, AND SV10 vibrational viscometer
Assay type: physicochemical
condition.set: product dried to water content between about 0.2 and 1% w/w
Doc: threshold 400 centipoise (exclusive). Items with Viscosity at 25° C. (centipoise) (error ± ~5%) beneath it return TRUE; others return FALSE.

Example entries begin here.
CC(=O)O.COCCCN [3-methoxypropylammonium acetate]	FALSE
CN(C)CCCO.O=CO [N,N-dimethylpropanolammonium formate]	TRUE
CC(=O)O.CN(C)CCOCCO	TRUE

Problem: Answer whether the compound CCC(=O)O.CCN(CC)CCO [N,N-diethylethanolammonium propionate] has Viscosity at 25° C. (centipoise) (error ± ~5%) strictly less than 400 centipoise
Result: TRUE

Problem: Answer whether the compound CC(=O)O.CCN(CC)CC(O)CO (stereo not shown) has Viscosity at 25° C. (centipoise) (error ± ~5%) strictly less than 400 centipoise
Result: FALSE

###

assay.notes: Density, mass of a measured volume of the liquid
Type: physicochemical
condition.set: product dried to water content between about 0.2 and 1% w/w
measure.name: Density (g/cm^3) (error ± ~2%) (g/mL)
// note: answer is a bare numeric in g/mL

Some molecules with recorded Density (g/cm^3) (error ± ~2%):
CN(C)CCCO.O=CO [N,N-dimethylpropanolammonium formate]	1.07
CCCCNCCO.O=CO [N-butylethanolammonium formate]	1.04
CC(=O)O.CN(C)CCCO [N,N-dimethylpropanolammonium acetate]	1.03
CCC(=O)O.CCN(CC)CCO [N,N-diethylethanolammonium propionate]	0.98

Kindly note the recorded Density (g/cm^3) (error ± ~2%) for COCCCN.O=C(O)CO [3-methoxypropylammonium glycolate] , which is 1.17

Kindly note the recorded Density (g/cm^3) (error ± ~2%) for CCCCNCCO.O=C(O)CO [N-butylethanolammonium glycolate] , which is 1.08

Kindly note the recorded Density (g/cm^3) (error ± ~2%) for CN(C)CCCO.O=C(O)CO [N,N-dimethylpropanolammonium glycolate] , which is 1.14

Kindly note the recorded Density (g/cm^3) (error ± ~2%) for CC(=O)O.CCCCNCCO [N-butylethanolammonium acetate] , which is 1.04

###

assay.notes: Refractive index, Mettler Toledo Refracto 30 portable refractometer
Type: physicochemical
condition.set: product dried to water content between about 0.2 and 1% w/w
measure.name: Refractive index (error ± ~2%)
Note: the reply should be a number with no unit written.

Some compounds with recorded Refractive index (error ± ~2%):
CCCCCCCC(=O)O.CCCCNCCO [N-butylethanolammonium octanoate]	1.456
CCN(CC)CCO.O=CO [N,N-diethylethanolammonium formate]	1.462
CC(=O)O.CCCNCCO [N-propylethanolammonium acetate]	1.459
CCC(=O)O.CCN(CC)CCO [N,N-diethylethanolammonium propionate]	1.450
CC(=O)O.COCCCN [3-methoxypropylammonium acetate]	1.447
COCCCN.O=C(O)CO [3-methoxypropylammonium glycolate]	1.470
CCC(=O)O.CCCNCCO [N-propylethanolammonium propionate]	1.456
CCS(=O)(=O)O.COCCN(C)C	1.449
CC(=O)O.COCCN(C)C	1.426
CCCCNCCO.O=C(O)CO [N-butylethanolammonium glycolate]	1.464

Next item in the queue.
Kindly note the recorded Refractive index (error ± ~2%) for COCCN(C)CCOC.O=C(O)CO , which is 1.452

###

assay.notes: Viscosity, AND SV10 vibrational viscometer
Format: physicochemical
condition.set: product dried to water content between about 0.2 and 1% w/w
Consider the following molecules and their measured Viscosity at 25° C. (centipoise) (error ± ~5%) readings.
// note: answer is a bare numeric in centipoise

COCCCN.O=C(O)CO [3-methoxypropylammonium glycolate]	2670
CCC(=O)O.CN(C)CCCO [N,N-dimethylpropanolammonium propionate]	52

Kindly note the recorded Viscosity at 25° C. (centipoise) (error ± ~5%) for CCCCCCCC(=O)O.CCN(CC)CCO [N,N-diethylethanolammonium octanoate] , which is 46

Kindly note the recorded Viscosity at 25° C. (centipoise) (error ± ~5%) for CC(=O)O.CN(C)CCCO [N,N-dimethylpropanolammonium acetate] , which is 77

Kindly note the recorded Viscosity at 25° C. (centipoise) (error ± ~5%) for CCC(=O)O.CCCNCCO [N-propylethanolammonium propionate] , which is 483

Kindly note the recorded Viscosity at 25° C. (centipoise) (error ± ~5%) for CCCCNCCO.O=CO [N-butylethanolammonium formate] , which is 376

Kindly note the recorded Viscosity at 25° C. (centipoise) (error ± ~5%) for CC(=O)O.CCN(CC)CCO [N,N-diethylethanolammonium acetate] , which is 55

Kindly note the recorded Viscosity at 25° C. (centipoise) (error ± ~5%) for CN(C)CCCO.O=C(O)CO [N,N-dimethylpropanolammonium glycolate] , which is 3320

Kindly note the recorded Viscosity at 25° C. (centipoise) (error ± ~5%) for CCN(CC)CCO.O=CO [N,N-diethylethanolammonium formate] , which is 395
